- test.description: protein stability index of a GFP-peptide fusion (yeast GPS) (PSI 1-4); higher = more stable; sorted into four equal gates, so the index is relative within each strain
- settings: san1∆
Cut-off 3 on protein stability index, inclusive. At or above means fulfilled; below means not fulfilled.

1) NLQPISTPENVPRLFDL [SMC4] | not fulfilled
2) PQQSGKKLLINKDASLA [DPB4] | not fulfilled
3) IKVDGAVGNLGNAIEVT [RPL22B] | not fulfilled
4) NGNLEEEFAYVDPARRQ [MED6] | fulfilled
5) ETAAMASLALAHVFVGT [RPN1] | not fulfilled
6) ICEPKETLSIFTNVPLN [YJL039C/NUP192] | not fulfilled
7) QRITIPNVCNMKQYRDF [PRP28] | not fulfilled
8) QNSANNNSDDEDVDDEE [IRR1] | fulfilled
9) GVEVRVTPTKTEVIIRA [RPS3] | not fulfilled
10) VYAFKAKNKSTRINGLN [REC8] | not fulfilled
11) IHNYDSKKSTITVRYWL [RGR1] | not fulfilled
12) IKNLGLPSDRCSKAMGD [RPP1] | fulfilled
13) MVRLKSRYILFEIIFPP [POP5] | not fulfilled
14) SHTSLVKIGKFIPHGLK [SRB8] | not fulfilled
15) RASKLKIQASDVNIIGK [RPO31] | not fulfilled
16) VTKQSELNSSEDILEDM [SMC1] | fulfilled
17) GDLVYARVCTAEKELEA [RRP40] | not fulfilled
18) KVKILEQIDENWSKEDL [SWI3] | not fulfilled
19) QAHEIVIPSYSKWFNLE [SWI3] | not fulfilled
20) EDVLVNQILMSVNFFVS [RPL1A] | not fulfilled
21) QKIRNSEGISEATREVF [ITC1] | not fulfilled
22) KTGITKKDEDEEADEDM [PRE9] | fulfilled
23) LPSPESLKTKLNSNIRA [SNF5] | not fulfilled
24) ALREMRKSDQQDVLKGS [POP1] | fulfilled
25) NGFAPISEVMEDRNQRI [FAS1] | fulfilled
26) QSRLMSTSYHLNSTLES [MED6] | not fulfilled
27) CYPQFAERDSQGGFYKQ [UBP6] | fulfilled
28) HEEDQKTNIIEKAMDYA [RPN12] | not fulfilled
29) LTCLPVPPPPVRPSISF [RPO21] | not fulfilled
30) RELLKSQVEDFTRIFLP [SIR3] | fulfilled
31) RRRLLGPAAAKPMAFSN [MTR3] | fulfilled
32) TYGFSILDIVINNPVNL [FAS1] | not fulfilled
33) GGSGAATFSVSQASSDL [CSL4] | fulfilled
34) AAQAQAQAQAQAQAQAQ [GAL11] | not fulfilled
35) VSTPEKWDITTRNSNNL [BRR2] | fulfilled
36) AARVDIGQIIFSVRTKD [RPL10] | not fulfilled
37) DSTPEEVSCKLLETITY [YML103C/NUP188] | not fulfilled
